# test.system: human GCGR (Homo sapiens (Human))
# Sequence (P47871 26-477): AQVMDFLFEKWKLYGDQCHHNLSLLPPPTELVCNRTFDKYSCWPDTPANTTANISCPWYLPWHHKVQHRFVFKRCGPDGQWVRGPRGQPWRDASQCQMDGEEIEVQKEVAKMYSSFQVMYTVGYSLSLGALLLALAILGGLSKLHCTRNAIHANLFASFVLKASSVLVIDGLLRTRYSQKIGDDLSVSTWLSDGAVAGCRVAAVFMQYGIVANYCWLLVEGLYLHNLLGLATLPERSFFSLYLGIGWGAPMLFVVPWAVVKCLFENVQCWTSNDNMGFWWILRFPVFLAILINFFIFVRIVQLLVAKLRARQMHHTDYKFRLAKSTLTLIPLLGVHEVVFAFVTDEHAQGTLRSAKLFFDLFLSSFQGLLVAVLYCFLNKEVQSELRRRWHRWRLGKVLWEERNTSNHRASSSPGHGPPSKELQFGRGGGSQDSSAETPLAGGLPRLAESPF
# experiment.summary: Cellular functional assay, cAMP readout: glucagon stimulated cAMP in HEK293 cells expressing human GCGR (LANCE TR-FRET)
Listed here are compounds together with their documented pKi.
Scale explanation: pKi corresponds to minus log10 of a concentration expressed in moles per litre.

Please review the entries below; each comes with its answer.
Cc1cc(Cl)ccc1-c1ccc(NCc2ccc(C(F)(F)F)cc2-c2ccc(C(=O)NCCC(=O)O)cc2C)cc1Cl [Compound 5] : 7.05
O=C(O)CCNC(=O)c1ccc(-c2cc(C(F)(F)F)ccc2CNc2ccc(-c3ccc(Cl)cc3Cl)cc2)cc1 [Compound 4] : 6.82
Cc1cc(C(F)(F)F)ccc1-c1ccc(NCc2c(-c3ccc(C(=O)NCCC(=O)O)cc3)cc(C(F)(F)F)cc2C(C)C)cc1Cl [Compound 17] : 7.52
Cc1cc(Cl)ccc1-c1ccc(NCc2ccc(C(F)(F)F)cc2-c2ccc(C(=O)NCCC(=O)O)cc2)cc1Cl [Compound 1] : 7.24

Problem: Kindly indicate its recorded pKi. Item: Cc1cc(C(F)(F)F)ccc1-c1ccc(NCc2ccc(C(F)(F)F)cc2-c2ccc(C(=O)NCCC(=O)O)cc2C)cc1Cl [Compound 6]
Solution: 7.15

Problem: Tell me pKi reported for Cc1cc(C(F)(F)F)ccc1-c1ccc(NCc2ccc(C(F)(F)F)cc2-c2ccc(C(=O)NCCC(=O)O)cc2)cc1Cl [Compound 2]
Solution: 7.38

Problem: Kindly indicate its recorded pKi. Item: COc1cc(C(F)(F)F)cc(-c2ccc(C(=O)NCCC(=O)O)cc2)c1CNc1ccc(-c2ccc(Cl)cc2)c(Cl)c1 [Compound 15]
Solution: 7.24

Problem: Provide only the value of recorded pKi for COc1cc(C(F)(F)F)cc(-c2ccc(C(=O)NCCC(=O)O)cc2)c1CNc1ccc(-c2ccc(C(F)(F)F)cc2Cl)cc1 [Compound 16]
Solution: 7.33

Problem: Please give the documented pKi of O=C(O)CCNC(=O)c1ccc(-c2cc(C(F)(F)F)ccc2CNc2ccc(-c3ccc(C(F)(F)F)cc3Cl)c(Cl)c2)cc1 [Compound 3]
Solution: 7.17
